Origin of the recorded values: patent US20240101576A1

Molecular target: EGFR exon 20 SVD Ins D770_N771 (Ba/F3 cells) (Homo sapiens, UniProt P00533, INS770SVD)
Construct: expressed in transfected cells; host or cells: Ba/F3 (murine pro-B cells), retroviral transduction, puromycin selection, IL3-independent pool
Sequence (P00533 with tags, fused parts or gaps INS770SVD): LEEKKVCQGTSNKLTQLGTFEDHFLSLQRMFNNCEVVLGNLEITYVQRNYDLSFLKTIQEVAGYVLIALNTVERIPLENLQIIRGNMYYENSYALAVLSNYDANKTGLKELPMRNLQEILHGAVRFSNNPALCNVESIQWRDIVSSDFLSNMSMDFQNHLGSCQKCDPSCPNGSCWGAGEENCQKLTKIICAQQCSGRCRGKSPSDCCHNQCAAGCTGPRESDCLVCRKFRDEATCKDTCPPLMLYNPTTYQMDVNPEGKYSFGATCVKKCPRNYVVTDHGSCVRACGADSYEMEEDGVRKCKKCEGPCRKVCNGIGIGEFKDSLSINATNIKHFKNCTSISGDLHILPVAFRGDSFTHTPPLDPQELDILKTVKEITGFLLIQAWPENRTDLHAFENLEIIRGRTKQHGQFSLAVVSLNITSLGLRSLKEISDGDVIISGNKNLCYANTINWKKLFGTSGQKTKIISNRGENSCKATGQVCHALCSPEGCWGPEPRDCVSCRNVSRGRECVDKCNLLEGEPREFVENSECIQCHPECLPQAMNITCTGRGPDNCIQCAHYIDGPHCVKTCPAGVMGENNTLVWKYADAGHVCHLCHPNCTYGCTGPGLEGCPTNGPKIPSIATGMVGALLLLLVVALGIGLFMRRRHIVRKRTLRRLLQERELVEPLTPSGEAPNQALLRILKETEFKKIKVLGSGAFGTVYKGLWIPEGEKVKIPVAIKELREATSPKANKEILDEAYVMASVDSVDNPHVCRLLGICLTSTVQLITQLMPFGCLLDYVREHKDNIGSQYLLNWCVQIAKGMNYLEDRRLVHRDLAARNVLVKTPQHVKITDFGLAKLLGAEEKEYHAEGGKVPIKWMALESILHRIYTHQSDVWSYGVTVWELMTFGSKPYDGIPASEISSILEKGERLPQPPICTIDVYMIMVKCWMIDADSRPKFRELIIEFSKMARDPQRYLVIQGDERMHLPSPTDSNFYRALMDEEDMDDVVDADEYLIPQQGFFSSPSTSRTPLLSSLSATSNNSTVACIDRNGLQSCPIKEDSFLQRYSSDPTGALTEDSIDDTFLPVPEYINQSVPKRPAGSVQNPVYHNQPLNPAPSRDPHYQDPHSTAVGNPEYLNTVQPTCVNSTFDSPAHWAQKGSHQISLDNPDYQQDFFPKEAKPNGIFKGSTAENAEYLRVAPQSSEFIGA
Assay: Inhibitor activity on EGFR-dependent cell growth (CellTiter-Glo, 72 h), Ba/F3 EGFR exon 20 SVD Ins
Assay type: cell-based
Conditions: read-out: BaF3 SVD IC50
property name: IC50

COc1c(F)cccc1Nc1c(-c2ccnc(SC)n2)[nH]c2c1C(=O)NCC2 :: 0.1 to 1 µM
COc1c(Cl)cccc1Nc1c(-c2ccncc2)[nH]c2c1C(=O)NCC2C[C@@H]1CN(C)CCO1 (single isomer, unassigned) :: > 1 µM
COc1c(Cl)cccc1Nc1c(-c2ccnc(NCC(F)(F)F)n2)[nH]c2c1C(=O)NCC2 :: > 1 µM
COc1c(Cl)cccc1Nc1c(-c2ccncc2F)[nH]c2c1C(=O)NC[C@]21CCN(CC(F)F)C1 :: < 0.1 µM
COc1c(Cl)cccc1Nc1c(-c2ccnc(NC(C)C)n2)[nH]c2c1C(=O)NCC2 :: 0.1 to 1 µM
COc1c(Cl)cccc1Nc1c(-c2ccnc3ccc(OCCN4CCOCC4)nc23)[nH]c2c1C(=O)NCC2 :: < 0.1 µM
CCn1cc(Nc2nccc(-c3[nH]c4c(c3Nc3cccc(Cl)c3OC)C(=O)NCC4)n2)nn1 :: < 0.1 µM
COc1c(Cl)cccc1Nc1c(-c2ccncc2F)[nH]c2c1C(=O)NC[C@@H]2CC(N)=O :: > 1 µM
COc1ncc2nccc(-c3[nH]c4c(c3Nc3cc(F)cc(Cl)c3OC)C(=O)NCC4)c2n1 :: < 0.1 µM
Nc1nccc(-c2[nH]c3c(c2Nc2cccc(F)c2F)C(=O)NCC3)n1 :: 0.1 to 1 µM

Let's switch to this compound now.
## Task Entry under review: `COc1c(Cl)cccc1Nc1c(-c2ccnc(Nc3cnn(C)n3)n2)[nH]c2c1C(=O)NCC2` . Reported IC50?
## Result < 0.1 µM

###

Biological target: EGFR exon 20 NPG Ins D770_N771 (Ba/F3 cells) (Homo sapiens, UniProt P00533, INS770NPG)
Construct: expressed in transfected cells; host or cells: Ba/F3 (murine pro-B cells), retroviral transduction, puromycin selection, IL3-independent pool
Sequence (P00533 with tags, fused parts or gaps INS770NPG): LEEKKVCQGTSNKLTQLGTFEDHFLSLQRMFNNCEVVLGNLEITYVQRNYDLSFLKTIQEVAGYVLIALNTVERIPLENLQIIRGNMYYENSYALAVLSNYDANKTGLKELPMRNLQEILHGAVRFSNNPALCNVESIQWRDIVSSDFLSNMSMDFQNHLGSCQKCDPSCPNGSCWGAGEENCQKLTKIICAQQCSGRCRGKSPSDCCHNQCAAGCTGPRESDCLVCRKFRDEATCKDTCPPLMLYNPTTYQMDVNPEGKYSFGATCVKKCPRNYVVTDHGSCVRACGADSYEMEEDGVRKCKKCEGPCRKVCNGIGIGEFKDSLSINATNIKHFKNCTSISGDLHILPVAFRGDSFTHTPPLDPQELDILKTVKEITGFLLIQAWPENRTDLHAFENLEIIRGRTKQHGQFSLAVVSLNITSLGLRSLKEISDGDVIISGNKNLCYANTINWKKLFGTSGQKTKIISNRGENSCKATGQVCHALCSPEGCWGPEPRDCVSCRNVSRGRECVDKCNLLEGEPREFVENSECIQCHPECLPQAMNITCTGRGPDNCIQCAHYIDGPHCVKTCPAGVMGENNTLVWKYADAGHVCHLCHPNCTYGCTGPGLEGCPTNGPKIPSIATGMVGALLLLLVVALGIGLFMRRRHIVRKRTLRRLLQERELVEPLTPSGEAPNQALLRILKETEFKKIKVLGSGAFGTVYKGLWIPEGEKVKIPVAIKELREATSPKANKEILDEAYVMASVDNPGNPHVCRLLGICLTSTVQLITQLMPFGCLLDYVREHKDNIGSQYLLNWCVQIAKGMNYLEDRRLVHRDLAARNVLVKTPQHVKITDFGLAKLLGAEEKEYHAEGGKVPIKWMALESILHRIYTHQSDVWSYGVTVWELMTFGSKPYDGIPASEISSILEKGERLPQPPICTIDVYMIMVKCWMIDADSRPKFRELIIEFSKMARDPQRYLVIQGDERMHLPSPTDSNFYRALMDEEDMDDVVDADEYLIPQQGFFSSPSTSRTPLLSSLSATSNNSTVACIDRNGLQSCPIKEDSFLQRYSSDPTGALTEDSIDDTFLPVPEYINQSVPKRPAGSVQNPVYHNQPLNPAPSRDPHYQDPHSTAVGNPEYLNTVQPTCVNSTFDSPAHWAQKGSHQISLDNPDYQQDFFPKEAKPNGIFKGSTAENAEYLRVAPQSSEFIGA
Assay: Inhibitor activity on EGFR-dependent cell growth (CellTiter-Glo, 72 h), Ba/F3 EGFR exon 20 NPG Ins
Format: cell-based
Conditions: read-out: BaF3 NPG IC50
pIC50: −log10 of the molar value.
property name: pIC50

## Task Entry under review: COc1c(Cl)cccc1Nc1c(-c2ccnc(Nc3ccn(C)n3)n2)[nH]c2c1C(=O)NCC2 [compound 509] . Reported pIC50?
## Result > 7.00

## Task # repeat for COc1c(Cl)cccc1Nc1c(-c2ccncn2)[nH]c2c1C(=O)NCC2C[C@H]1COCCO1 (single isomer, unassigned) [Compound 527]
## Result > 7.00

###

Target: EGFR WT (Ba/F3 cells) (Homo sapiens)
Assay: Inhibitor activity on EGFR-dependent cell growth (CellTiter-Glo, 72 h), Ba/F3 EGFR WT
Settings: read-out: BaF3 WT IC50
Reported IC50 values are given for each entry in this list.

Illustrative cases are given below, each with its answer.
Nc1nccc(-c2[nH]c3c(c2Nc2cccc4c2OCO4)C(=O)NCC3)n1 :: > 1000 nM
COc1c(F)cccc1Nc1c(-c2ccnc3ccc(N(C)C)nc23)[nH]c2c1C(=O)NCC2 :: < 100 nM

## Task Entry under review: `COc1ncc2nccc(-c3[nH]c4c(c3Nc3c(F)cccc3F)C(=O)NCC4)c2n1` . Reported IC50?
## Result > 1000 nM

## Task # repeat for `COc1c(F)cccc1Nc1c(-c2ccnc(N)c2F)[nH]c2c1C(=O)NCC2`
## Result > 1000 nM

## Task # repeat for `COc1ncc2nccc(-c3[nH]c4c(c3Nc3cccc(Cl)c3OC)C(=O)NCC4)c2n1`
## Result < 100 nM

## Task # repeat for `Nc1nccc(-c2[nH]c3c(c2Nc2cc(F)cc(F)c2)C(=O)NCC3)n1`
## Result 100 to 1000 nM

## Task # repeat for `Nc1nccc(-c2[nH]c3c(c2Nc2cccc(C(F)(F)F)c2)C(=O)NCC3)n1`
## Result > 1000 nM

## Task # repeat for COc1c(Cl)cccc1Nc1c(-c2ccncc2F)[nH]c2c1C(=O)NC[C@H]2CC1COC1 [468b]
## Result > 1000 nM

## Task # repeat for `COc1c(Cl)cccc1Nc1c(-c2ccncc2F)[nH]c2c1C(=O)NC[C@@H]2C[C@@H]1CN(C)CCO1`
## Result 100 to 1000 nM

## Task # repeat for `COc1c(Cl)cccc1Nc1c(-c2ccnc3ccc(OCC(F)F)nc23)[nH]c2c1C(=O)NCC2`
## Result 100 to 1000 nM

## Task # repeat for `COc1ncc2nccc(-c3[nH]c4c(c3Nc3cccc(Cl)c3OC)C(=O)N[C@H](C(F)(F)F)C4)c2n1`
## Result > 1000 nM

## Task # repeat for `COc1ccc2nccc(-c3[nH]c4c(c3Nc3cccc(F)c3OC)C(=O)NCC4)c2n1`
## Result < 100 nM

## Task # repeat for `C=CC(=O)N1CCC2(CC1)CNC(=O)c1c2[nH]c(-c2ccnc(C)n2)c1Nc1cc(F)cc(F)c1OC`
## Result 100 to 1000 nM

## Task # repeat for `COc1c(Cl)cccc1Nc1c(-c2ccnc(Nc3cnn(C)n3)n2)[nH]c2c1C(=O)NCC2`
## Result 100 to 1000 nM

## Task # repeat for `COc1c(F)cccc1Nc1c(-c2nnc3ccccn23)[nH]c2c1C(=O)NCC2`
## Result > 1000 nM

###

Biological target: EGFR WT (Ba/F3 cells) (Homo sapiens)
Assay: Inhibitor activity on EGFR-dependent cell growth (CellTiter-Glo, 72 h), Ba/F3 EGFR WT
Details: read-out: BaF3 WT IC50
pIC50: −log10 of the molar value.
property name: pIC50

COc1cnc2c(-c3[nH]c4c(c3Nc3cccc(Cl)c3OC)C(=O)NCC4)ccnc2c1 :: > 7.00
COc1ccc2nccc(-c3[nH]c4c(c3Nc3cccc(Cl)c3OC)C(=O)NCC4)c2c1 :: < 6.00
COc1ncc2nccc(-c3[nH]c4c(c3Nc3cccc(F)c3C)C(=O)NCC4)c2n1 :: 6.00 to 7.00
COc1c(Cl)cccc1Nc1c(-c2ccncc2F)[nH]c2c1C(=O)NC[C@@H]2CC(F)F :: < 6.00
COc1c(Cl)cccc1Nc1c(-c2ccnc3ccc(OCCN4CCOCC4)nc23)[nH]c2c1C(=O)NCC2 :: 6.00 to 7.00
COc1c(F)cccc1Nc1c(-c2snc3ccccc23)[nH]c2c1C(=O)NCC2 :: 6.00 to 7.00
COc1c(Cl)cccc1Nc1c(-c2ccncc2F)[nH]c2c1C(=O)NCC21CCOC1 (single isomer, unassigned) :: < 6.00
COc1c(Cl)cccc1Nc1c(-c2ccncc2F)[nH]c2c1C(=O)NC[C@@H]2CCN1CCOCC1 :: < 6.00
C=CC(=O)N1CCC2(CC1)CNC(=O)c1c2[nH]c(-c2ccnc(N)n2)c1Nc1cccc(Cl)c1OC :: 6.00 to 7.00
COCC[C@H]1CNC(=O)c2c1[nH]c(-c1ccncc1F)c2Nc1cccc(Cl)c1OC :: > 7.00

Let's switch to this molecule now.
## Task Under EGFR WT (Ba/F3 cells) (Homo sapiens): pIC50 value of `COc1c(F)cccc1Nc1c(-c2ccnc(N)n2)[nH]c2c1C(=O)NCC2` ?
## Result < 6.00

###

Reported IC50 values are given for each entry in this list.
Target: EGFR exon 20 ASV Ins V769_D770 (Ba/F3 cells) (Homo sapiens, UniProt P00533, INS769ASV)
Construct: expressed in transfected cells; host or cells: Ba/F3 (murine pro-B cells), retroviral transduction, puromycin selection, IL3-independent pool
Sequence (P00533 with tags, fused parts or gaps INS769ASV): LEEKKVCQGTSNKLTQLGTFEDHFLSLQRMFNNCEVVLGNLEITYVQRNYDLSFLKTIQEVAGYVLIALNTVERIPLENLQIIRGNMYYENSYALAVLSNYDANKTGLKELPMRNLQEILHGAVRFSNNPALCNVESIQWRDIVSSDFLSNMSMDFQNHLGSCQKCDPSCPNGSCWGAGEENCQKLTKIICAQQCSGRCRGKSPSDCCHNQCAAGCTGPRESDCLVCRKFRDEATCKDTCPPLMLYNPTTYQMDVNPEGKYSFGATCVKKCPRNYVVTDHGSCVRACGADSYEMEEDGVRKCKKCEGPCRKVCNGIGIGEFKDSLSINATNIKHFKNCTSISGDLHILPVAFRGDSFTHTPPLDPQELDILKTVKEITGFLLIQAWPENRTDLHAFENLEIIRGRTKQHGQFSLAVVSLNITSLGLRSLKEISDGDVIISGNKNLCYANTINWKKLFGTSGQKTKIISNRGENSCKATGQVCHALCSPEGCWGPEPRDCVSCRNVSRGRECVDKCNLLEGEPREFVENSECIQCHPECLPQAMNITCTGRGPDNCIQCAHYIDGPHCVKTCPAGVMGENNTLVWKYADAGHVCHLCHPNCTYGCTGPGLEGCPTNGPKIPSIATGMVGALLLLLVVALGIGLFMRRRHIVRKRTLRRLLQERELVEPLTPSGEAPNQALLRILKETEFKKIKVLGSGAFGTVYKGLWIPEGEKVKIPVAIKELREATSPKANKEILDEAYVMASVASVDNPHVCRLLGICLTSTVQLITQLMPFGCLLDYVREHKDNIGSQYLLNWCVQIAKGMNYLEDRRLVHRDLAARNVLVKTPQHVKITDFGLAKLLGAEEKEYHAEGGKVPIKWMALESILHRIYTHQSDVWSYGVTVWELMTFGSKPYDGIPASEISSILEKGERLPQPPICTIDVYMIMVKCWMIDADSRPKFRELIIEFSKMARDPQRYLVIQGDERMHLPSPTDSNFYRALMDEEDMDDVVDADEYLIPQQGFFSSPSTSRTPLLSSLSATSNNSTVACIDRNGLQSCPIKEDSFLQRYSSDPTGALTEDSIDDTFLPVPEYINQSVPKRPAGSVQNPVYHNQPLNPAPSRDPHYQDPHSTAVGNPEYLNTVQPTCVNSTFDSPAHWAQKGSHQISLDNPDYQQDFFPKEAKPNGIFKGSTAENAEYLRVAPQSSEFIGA
Experiment: Inhibitor activity on EGFR-dependent cell growth (CellTiter-Glo, 72 h), Ba/F3 EGFR exon 20 ASV Ins
Format: cell-based
Conditions: read-out: BaF3 ASV IC50

Illustrative cases are given below, each with its answer.
COc1c(Cl)cccc1Nc1c(-c2ccnc(NCC(C)(C)O)n2)[nH]c2c1C(=O)NCC2 :: > 1000 nM
COC[C@@H]1CNC(=O)c2c1[nH]c(-c1ccnc3ccc(OC)nc13)c2Nc1cccc(Cl)c1OC (single isomer, unassigned) :: < 100 nM

## Task Entry under review: `COc1c(F)cccc1Nc1c(-c2ccncc2F)[nH]c2c1C(=O)NCC2` . Reported IC50?
## Result 100 to 1000 nM

###

Biological target: EGFR exon 20 FQEA Ins A763_V764 (Ba/F3 cells) (Homo sapiens, UniProt P00533, INS763FQEA)
Sequence (P00533 with tags, fused parts or gaps INS763FQEA): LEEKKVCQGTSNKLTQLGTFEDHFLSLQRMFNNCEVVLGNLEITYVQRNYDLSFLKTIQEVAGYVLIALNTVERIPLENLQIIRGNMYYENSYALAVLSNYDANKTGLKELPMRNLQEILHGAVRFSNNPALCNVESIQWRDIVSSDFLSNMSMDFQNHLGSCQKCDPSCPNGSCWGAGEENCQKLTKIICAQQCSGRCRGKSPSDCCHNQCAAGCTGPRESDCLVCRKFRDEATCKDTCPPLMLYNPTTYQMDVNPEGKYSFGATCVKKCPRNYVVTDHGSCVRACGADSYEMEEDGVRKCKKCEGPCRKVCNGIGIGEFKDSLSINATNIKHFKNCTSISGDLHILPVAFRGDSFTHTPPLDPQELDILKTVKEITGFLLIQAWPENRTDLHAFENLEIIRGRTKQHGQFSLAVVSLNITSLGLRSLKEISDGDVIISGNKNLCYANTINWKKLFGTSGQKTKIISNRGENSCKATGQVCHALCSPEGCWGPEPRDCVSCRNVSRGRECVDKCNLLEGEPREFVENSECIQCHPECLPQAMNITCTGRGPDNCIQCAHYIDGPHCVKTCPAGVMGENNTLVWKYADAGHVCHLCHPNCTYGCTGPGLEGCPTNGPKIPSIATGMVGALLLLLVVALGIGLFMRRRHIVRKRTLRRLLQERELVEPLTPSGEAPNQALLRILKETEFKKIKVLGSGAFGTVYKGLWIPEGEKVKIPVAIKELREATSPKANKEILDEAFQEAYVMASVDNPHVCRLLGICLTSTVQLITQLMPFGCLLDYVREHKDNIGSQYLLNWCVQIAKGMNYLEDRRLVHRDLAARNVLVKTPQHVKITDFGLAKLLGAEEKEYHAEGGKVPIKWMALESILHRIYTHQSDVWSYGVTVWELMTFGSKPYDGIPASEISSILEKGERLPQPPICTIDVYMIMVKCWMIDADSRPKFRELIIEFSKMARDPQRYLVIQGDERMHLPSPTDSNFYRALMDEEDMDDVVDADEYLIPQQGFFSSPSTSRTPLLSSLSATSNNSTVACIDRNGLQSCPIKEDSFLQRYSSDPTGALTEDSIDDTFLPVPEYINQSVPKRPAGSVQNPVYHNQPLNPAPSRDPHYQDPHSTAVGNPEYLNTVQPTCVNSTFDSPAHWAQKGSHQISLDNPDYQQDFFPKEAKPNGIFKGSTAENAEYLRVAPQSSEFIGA
Experiment: Inhibitor activity on EGFR-dependent cell growth (CellTiter-Glo, 72 h), Ba/F3 EGFR exon 20 FQEA Ins
Settings: read-out: BaF3 FQEA IC50
pIC50: −log10 of the molar value.
property name: pIC50

Illustrative cases are given below, each with its answer.
COc1cc2nccc(-c3[nH]c4c(c3Nc3cccc(F)c3C)C(=O)NCC4)c2nc1OC [Compound 808] :: > 7.00
COCCNc1ccc2nccc(-c3[nH]c4c(c3Nc3cccc(Cl)c3OC)C(=O)NCC4)c2n1 [Compound 680, formic acid] :: > 7.00

## Task Entry under review: Cc1c(F)cccc1Nc1c(-c2ccnc(N)c2F)[nH]c2c1C(=O)NCC2 [Compound 692] . Reported pIC50?
## Result 6.00 to 7.00
